Reference for the values: PubChem BioAssay AID1159580

Test: chemical genetic growth profiling, strain panel (AID 1159580);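 also: tested at 20 µM; growth read once vehicle control cultures reached saturation at 30 °C; 1 = growth at the plate median or of vehicle wells; lower values mean less growth of the strain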
Conditions: S. cerevisiae deletion strains, growth OD, locus YIR030C, strain dcg1, stronger effect = lower value
The whole screen tested about 5,500 compounds, of which about 2,000 (36%) were called active. Not shown: some 18% with an inconclusive outcome. The list shows a part of the results.
QUANTITY_NAME: normalized growth
Give bare numbers.

These recorded examples may help you get a feel for the data.
COMPOUND	normalized growth
C[C@H](CCC(=O)O)[C@H]1CCC2C3C(CC[C@@]21C)[C@@]1(C)CC[C@@H](O)C[C@H]1C[C@H]3O (stereo not given in full)	1.05
COc1cc(OC)c(OC)cc1C=O	0.99
COC(=O)CCC(C)[C@H]1CCC2C3C(C[C@H](O)[C@@]21C)[C@@]1(C)CC[C@@H](O)C[C@H]1C[C@H]3O (stereo not given in full)	1.03
C[C@H](CCC(=O)O)[C@H]1CCC2C3C(CC[C@@]21C)[C@@]1(C)CC[C@@H](O)C[C@H]1C[C@@H]3O (stereo not given in full)	0.982
CC(CCC(=O)O)[C@H]1CCC2C3CC[C@@H]4CCCC[C@]4(C)C3CC[C@@]21C (stereo not given in full)	0.985

Report normalized growth for each item below.
1. O=c1cc(-c2ccccc2)oc2cc(O)c(O)c(O)c12
2. C=C[C@H]1CN2CC[C@H]1C[C@@H]2[C@H](O)c1ccnc2ccccc12
3. CC(C)CCCC(C)C1CCC2C3CC[C@H]4CCCC[C@]4(C)C3CC[C@]12C (stereo not given in full)
4. CCCCCC1C(=O)CCC1CC(=O)OC (stereo not given)
5. CCCCCC1C(=O)CCC1CC(=O)O (stereo not given)

0.359
0.989
0.987
0.948
0.986

* * *

Test: chemical genetic growth profiling, strain panel (AID 1159580);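 also: tested at 20 µM; growth read once vehicle control cultures reached saturation at 30 °C; 1 = growth at the plate median or of vehicle wells; lower values mean less growth of the strain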
Conditions: S. cerevisiae deletion strains, growth OD, locus YEL061C, strain CIN8 (second series), stronger effect = lower value
The whole screen tested about 5,500 compounds, of which about 2,000 (36%) were called active. Not shown: some 18% with an inconclusive outcome. The list shows a part of the results.
Exercise: state measured normalized growth for each of the compounds provided.

These recorded examples may help you get a feel for the data.
COMPOUND	normalized growth
CC(=O)Nc1nnc(S(N)(=O)=O)s1	1.02 (inactive)
COc1cc([C@H]2Oc3cc([C@H]4Oc5cc(O)cc(O)c5C(=O)[C@@H]4O)ccc3O[C@@H]2CO)ccc1O	1.02 (inactive)
CN(C)CCC(c1ccc(Br)cc1)c1ccccn1 (centres undefined)	0.989 (inactive)
C[C@H](N)[C@H](O)c1cccc(O)c1	0.992 (inactive)
CNCCCN1c2ccccc2CCc2ccccc21	1.01 (inactive)

Report normalized growth for each item below.
1. CC1CCC2(OC1)OC1CC3C4CCC5C[C@@H](O)CCC5(C)C4=CCC3(C)C1[C@@H]2C (some centres undefined)
2. Nc1cc(C(Cl)=C(Cl)Cl)c(S(N)(=O)=O)cc1S(N)(=O)=O
3. O=[N+]([O-])c1cccc2cn[nH]c12
4. CC12CC3CC(C)(C1)CC(N)(C3)C2

["0.993 (inactive)", "1 (inactive)", "0.979 (inactive)", "0.971 (inactive)"]

Report normalized growth for each item below.
1. COc1c2ccoc2nc2c(OC)c(OCC(O)C(C)(C)O)ccc12 (centres undefined)
2. CNC(=O)Oc1ccc2c(c1)[C@]1(C)CCN(C)[C@@H]1N2C
3. CO[C@]12C[C@@H](COC(=O)c3cncc(Br)c3)CN(C)[C@@H]1Cc1cn(C)c3cccc2c13
4. c1ccc2c(c1)CN1CCCC1=N2
5. Cc1ncc([N+](=O)[O-])n1CC(C)O (centres undefined)
6. CN[C@@H]1[C@H](OC2[C@H](O[C@H]3[C@H](O)[C@@H](O)[C@H](N=C(N)N)[C@@H](O)[C@@H]3N=C(N)N)O[C@@H](C)[C@]2(O)C=O)O[C@@H](CO)[C@H](O)[C@H]1O (some centres undefined)
7. CC(CN(C)C)CN1c2ccccc2CCc2ccccc21 (centres undefined)

1.01 (inactive)
1.02 (inactive)
0.987 (inactive)
0.996 (inactive)
0.964 (inactive)
1.01 (inactive)
0.96 (inactive)
